Target: T1, Aβ1–42 fibrils (UniProt P05067 672-713)
T1 construct: amyloid-β peptide Aβ1–42, cut from the amyloid precursor protein (APP), in fibrillar form; Aggregated (fibrillar) state of the same peptide as m15; also called fibrillar Aß1–42; Aβ fibrils; source: bought: JPT Biotech or Bachem AG (HPLC purified peptide); fibrils formed at 37°C (7 days in PBS pH 7.4 for SPR; five days in 50 mM Tris-HCl pH 7.4 for ELISA)
T1 sequence (P05067 672-713): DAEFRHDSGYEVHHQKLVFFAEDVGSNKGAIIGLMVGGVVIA
Test: SPR; Biacore T100, single-cycle mode, 25°C; Aβ1–42 fibrils immobilised on a CM5 chip by amine coupling; PBS pH 7.4, 30 µl/min; 100 to 62500 nM in fivefold steps, 60 s each; heterogeneous ligand model
Settings: both partners purified
Square brackets hold non-standard residues; d marks the D form. Primed or numbered codes have the meaning given here. Ends that are not written are not given here. FITC′ = fluorescein isothiocyanate (ϕ)
valueType: k off2 (heterogeneous ligand model, site 2)
Hey, just send me the number, nothing else.

# count of solved cases: 3
| binder | observedValue |
| --- | --- |
| [dP][dS][dH][dY][dR][dH][dI][dS][dP][dA][dQ][dK][dK](FITC′) (D-enantiomeric derivative of ACI-80 (D1): Q1P, V12K, added C-terminal lysine; also called D1-Q1P-V12K-Kϕ; source: synthetic peptide (JPT Peptide Technologies GmbH, Berlin)) [ACI-89-Kϕ] | 0.0118 |
| [dQ][dS][dH][dY][dR][dH][dI][dS][dP][dA][dQ][dK][dK](FITC′) (D-enantiomeric derivative of ACI-80 (D1): V12K, added C-terminal lysine; also called D1-V12K-Kϕ; source: synthetic peptide (JPT Peptide Technologies GmbH, Berlin)) [ACI-87-Kϕ] | 0.0407 |
| [dQ][dS][dH][dY][dR][dH][dI][dS][dP][dA][dQ][dV][dK](FITC′) (D-enantiomeric peptide ACI-80 (D1), selected by mirror image phage display on aggregated Aβ1–42, with an added C-terminal lysine; also called D1-Kϕ; source: synthetic peptide (JPT Peptide Technologies GmbH, Berlin)) [ACI-80-Kϕ] | 1.58 |

Now for the binder whose k off2 (heterogeneous ligand model, site 2) we want.
Qu. For the binder [dS][dH][dY][dR][dH][dI][dS][dP][dA][dQ][dK][dK](FITC′) (D-enantiomeric derivative of ACI-80 (D1): N-terminal glutamine deleted (Q1X), V12K, added C-terminal lysine; also called D1-Q1X-V12K-Kϕ; source: synthetic peptide (JPT Peptide Technologies GmbH, Berlin)) [ACI-88-Kϕ] , report k off2 (heterogeneous ligand model, site 2).
Ans. 0.0553
